- Species: Rattus norvegicus
- MEASUREMENT_PROTOCOL: DrugMatrix - Regimen: Daily Repeat
- Format: toxicity, organism-based, Sprague-Dawley
- Design: regimen Daily Repeat, gender Male, age 6-8 weeks
- CONDITION_SUMMARY: in vivo, po, 0 mg/kg, 120 h, tissue Plasma, route oral GAVAGE, dose level Control, time 5 day, […]
QUANTITY_MEASURED: LACTATE DEHYDROGENASE (u/L)
Give bare numbers, in u/L.

Take a look at these entries with their results.
MOLECULE | UNIT_DESCRIPTOR | LACTATE DEHYDROGENASE
COCCOC(=O)C1=C(C)NC(C)=C(C(=O)OC(C)C)C1c1cccc([N+](=O)[O-])c1 (stereo not given) [NIMODIPINE] | u/L | 111.33
CCCCCCCCc1ccc(O)cc1 [4-OCTYLPHENOL] | u/L | 229.17
CC(=O)Nc1ccc(O)cc1 [ACETAMINOPHEN] | u/L | 91.5
COc1ccc2[nH]c([S+]([O-])Cc3ncc(C)c(OC)c3C)nc2c1 (stereo not given) [OMEPRAZOLE] | u/L | 1594
Cc1cccc(Nc2ccncc2S(=O)(=O)NC(=O)NC(C)C)c1 [TORSEMIDE] | u/L | 124
CC(C)Cc1ccc(C(C)C(=O)O)cc1 (stereo not given) [IBUPROFEN] | u/L | 118

Return reported LACTATE DEHYDROGENASE values for all items listed beneath this line.
1. CC(C)(Oc1ccc(C2CCCc3ccccc32)cc1)C(=O)O (stereo not given) [NAFENOPIN]
2. C[C@]12CC[C@@H]3c4ccc(O)cc4CC[C@H]3[C@@H]1CC[C@@H]2O [ESTRADIOL]
3. CCOC(=O)C1=C(C)NC(C)=C(C(=O)OC)C1c1cccc([N+](=O)[O-])c1 (stereo not given) [NITRENDIPINE]
4. CC(=O)Nc1cccc(O)c1 [METACETAMOL]

1: 210.83; 2: 124; 3: 111.33; 4: 408.67

###

- Species on record: Rattus norvegicus
- MEASUREMENT_PROTOCOL: DrugMatrix - Regimen: Daily Repeat
- Format: toxicity, organism-based, Sprague-Dawley
- Design: regimen Daily Repeat, gender Male, age 6-8 weeks
- CONDITION_SUMMARY: in vivo, ip, 0 mg/kg, […], tissue Blood, route intraperitoneal, dose level Control, time 14 day, vehicle 100 % SALINE
QUANTITY_MEASURED: ABSOLUTE LYMPHOCYTE (cells/µL)
Answers are plain numbers, in cells/µL.

Find the measured ABSOLUTE LYMPHOCYTE of CCN[C@@H]1C[C@H](N)[C@@H](O[C@H]2OC(CN)=CC[C@H]2N)[C@H](O)[C@H]1O[C@H]1OC[C@](C)(O)[C@H](NC)[C@H]1O and report it.
13500

###

- Species on record: Rattus norvegicus
- MEASUREMENT_PROTOCOL: DrugMatrix - Regimen: Daily Repeat
- Assay type: toxicity, organism-based, Sprague-Dawley
- Set-up: regimen Daily Repeat, gender Male, age 6-8 weeks
- CONDITION_SUMMARY: in vivo, sc, 0.5 mg/kg, 72 h, tissue Blood, route mini-PUMP - SUBCUTANEOUS, dose level High, time 3 day, vehicle 100 % SALINE
QUANTITY_MEASURED: ABSOLUTE BASOPHIL (cells/µL)
Answers are plain numbers, in cells/µL.

// fetch ABSOLUTE BASOPHIL given entry CC[C@H](C)[C@H](NC(=O)[C@H](Cc1ccc(O)cc1)NC(=O)[C@@H](NC(=O)[C@H](CCCNC(=N)N)NC(=O)[C@@H](N)CC(=O)O)C(C)C)C(=O)N[C@@H](Cc1cnc[nH]1)C(=O)N1CCC[C@H]1C(=O)N[C@@H](Cc1ccccc1)C(=O)O
56.7

###

- Species on record: Rattus norvegicus
- MEASUREMENT_PROTOCOL: DrugMatrix - Regimen: Daily Repeat
- Type: toxicity, organism-based, Sprague-Dawley
- Design: regimen Daily Repeat, gender Male, age 6-8 weeks
- CONDITION_SUMMARY: in vivo, iv, 0 mg/kg, 72 h, tissue Blood, dose level Control, time 3 day, vehicle 100 % SALINE
Could you mark each record Met if its MONOCYTE falls strictly under 2%, and Not met if it equals or exceeds it?

COMPOUND | LABEL_CLASS
CC(=O)N[C@@H]1[C@H](Oc2c3cc4cc2Oc2ccc(cc2Cl)[C@@H](O[C@@H]2O[C@@H](CO)[C@@H](O)[C@H](O)[C@@H]2NC(C)=O)[C@@H]2NC(=O)[C@H](NC(=O)[C@@H]4NC(=O)[C@H]4NC(=O)[C@@H](Cc5ccc(c(Cl)c5)O3)NC(=O)[C@H](N)c3ccc(O)c(c3)Oc3cc(O)cc4c3)c3ccc(O)c(c3)-c3c(O[C@H]4O[C@H](CO)[C@@H](O)[C@@H](O)[C@@H]4O)cc(O)cc3[C@@H](C(=O)O)NC2=O)O[C@@H](CO)[C@@H](O)[C@@H]1O | Not met
COc1cccc2c1C(=O)c1c(O)c3c(c(O)c1C2=O)C[C@@](O)(C(=O)CO)C[C@@H]3O[C@H]1C[C@H](N)[C@H](O)[C@H](C)O1 [DOXORUBICIN] | Met
CC[C@]1(O)C[C@@H]2CN(CCc3c([nH]c4ccccc34)[C@@](C(=O)OC)(c3cc4c(cc3OC)N(C)[C@H]3[C@@](O)(C(=O)OC)[C@H](OC(C)=O)[C@]5(CC)C=CCN6CC[C@]43[C@@H]65)C2)C1 [VINBLASTINE] | Met
COc1cccc2c1C(=O)c1c(O)c3c(c(O)c1C2=O)C[C@@](O)(C(=O)CO)C[C@@H]3O[C@H]1C[C@H](N)[C@@H](O)[C@H](C)O1 [EPIRUBICIN] | Met
CCc1c2c(nc3ccc(OC(=O)N4CCC(N5CCCCC5)CC4)cc13)-c1cc3c(c(=O)n1C2)COC(=O)[C@]3(O)CC [IRINOTECAN] | Met

Moving on to the next compound.
Given the entry CCC1=C[C@@H]2CN(C1)Cc1c([nH]c3ccccc13)[C@@](C(=O)OC)(c1cc3c(cc1OC)N(C)[C@H]1[C@@](O)(C(=O)OC)[C@H](OC(C)=O)[C@]4(CC)C=CCN5CC[C@]31[C@@H]54)C2 [VINORELBINE] , would its reported MONOCYTE be below 2%?
Met

###

- Organism: Rattus norvegicus
- MEASUREMENT_PROTOCOL: DrugMatrix - Regimen: Daily Repeat
- Assay type: toxicity, organism-based, Sprague-Dawley
- Set-up: regimen Daily Repeat, gender Male, age 6-8 weeks
- CONDITION_SUMMARY: in vivo, po, 0 mg/kg, 72 h, tissue Blood, route oral GAVAGE, dose level Control, time 3 day, vehicle 100 % WATER
Please provide measured ABSOLUTE SEGMENTED NEUTROPHIL for the entries that follow.
Give bare numbers, in CELLS/uL.

Here is how some compounds turned out for ABSOLUTE SEGMENTED NEUTROPHIL.
COMPOUND | ABSOLUTE SEGMENTED NEUTROPHIL (CELLS/uL)
CC(C)NCC(O)COc1cccc2ccccc12 (centres undefined) | 1242.33
Nc1ccn([C@@H]2CS[C@H](CO)O2)c(=O)n1 | 887
Cc1ncc([N+](=O)[O-])n1CCO | 1090.17

Hey, can you go through the list below and give me ABSOLUTE SEGMENTED NEUTROPHIL for every item?
1. C[N+](C)(C)CCO.[Cl-] [CHOLINE CHLORIDE]
2. ClC(Cl)Cl [CHLOROFORM]
3. CC(C)(C)c1ccc(C(=O)CCCN2CCC(OC(c3ccccc3)c3ccccc3)CC2)cc1
4. CC(C)C[C@H](NC(=O)[C@@H](O)[C@H](N)Cc1ccccc1)C(=O)O
5. C[C@@H]1C[C@@H]([C@H](O)CC2CC(=O)NC(=O)C2)C(=O)[C@@H](C)C1 [CYCLOHEXIMIDE]
6. COC(=O)C1=C(C)NC(C)=C(C(=O)OCC(C)C)C1c1ccccc1[N+](=O)[O-] (centres undefined)

1. 1008.5
2. 1090.17
3. 1149.5
4. 1223.17
5. 1461.67
6. 617.67

###

Exercise: for every item that follows, state its recorded POTASSIUM.
- Species: Rattus norvegicus
- MEASUREMENT_PROTOCOL: DrugMatrix - Regimen: Daily Repeat
- Assay type: toxicity, organism-based, Sprague-Dawley
- Set-up: regimen Daily Repeat, gender Male, age 6-8 weeks
- CONDITION_SUMMARY: in vivo, po, 0 mg/kg, 72 h, tissue Plasma, route oral GAVAGE, dose level Control, time 3 day, vehicle .5 % CMC
Reply with the number and its unit after it.

Solved cases below.
COMPOUND | POTASSIUM
Clc1ccc2c(c1)C(N1CCNCC1)=Nc1ccccc1O2 [AMOXAPINE] | 6.2 MEQ/L
CN1CCC(=C2c3ccccc3C=Cc3ccccc32)CC1 [CYPROHEPTADINE] | 6.43 MEQ/L
C[C@](O)(CS(=O)(=O)c1ccc(F)cc1)C(=O)Nc1ccc(C#N)c(C(F)(F)F)c1 [(R)-BICALUTAMIDE] | 6.37 MEQ/L
CC(C)[C@H]1CC[C@H](C(=O)N[C@H](Cc2ccccc2)C(=O)O)CC1 [NATEGLINIDE] | 6.81 MEQ/L

I would be grateful if you could provide POTASSIUM for each of the following entries.
1. C#C[C@]1(O)CC[C@H]2[C@@H]3CCc4cc(OC)ccc4[C@H]3CC[C@@]21C [MESTRANOL]
2. O=C1CCC(N2C(=O)c3ccccc3C2=O)C(=O)N1 (centres undefined) [THALIDOMIDE]
3. Cc1onc(-c2ccccc2)c1-c1ccc(S(N)(=O)=O)cc1 [VALDECOXIB]
4. O=[N+]([O-])c1ccccc1 [NITROBENZENE]
5. CC(=O)CC(c1ccccc1)c1c(O)c2ccccc2oc1=O (centres undefined) [WARFARIN]

1. 7.13 MEQ/L
2. 7.03 MEQ/L
3. 7 MEQ/L
4. 6.57 MEQ/L
5. 6.41 MEQ/L
